Below, each entry is listed alongside its reported IC50.
- tgt: horse serum butyrylcholinesterase (hsBChE) (Equus caballus)
- Sequence (P81908 whole entry): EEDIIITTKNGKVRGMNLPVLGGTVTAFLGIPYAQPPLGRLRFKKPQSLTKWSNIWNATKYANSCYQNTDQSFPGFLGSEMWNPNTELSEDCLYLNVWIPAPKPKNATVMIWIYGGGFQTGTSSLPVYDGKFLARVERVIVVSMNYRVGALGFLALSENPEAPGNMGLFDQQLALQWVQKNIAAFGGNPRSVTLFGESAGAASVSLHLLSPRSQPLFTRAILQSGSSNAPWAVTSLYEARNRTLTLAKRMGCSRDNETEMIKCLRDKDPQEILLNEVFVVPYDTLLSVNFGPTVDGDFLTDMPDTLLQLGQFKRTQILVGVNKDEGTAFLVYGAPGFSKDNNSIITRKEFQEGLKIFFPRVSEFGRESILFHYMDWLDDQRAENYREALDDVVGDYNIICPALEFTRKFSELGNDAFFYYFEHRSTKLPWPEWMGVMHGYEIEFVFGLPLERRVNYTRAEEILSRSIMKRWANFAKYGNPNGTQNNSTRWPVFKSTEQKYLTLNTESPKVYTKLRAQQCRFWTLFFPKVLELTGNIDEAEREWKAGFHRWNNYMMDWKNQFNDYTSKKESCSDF
- method_description: biochemical
- condition_set: means ± SEM of three independent measurements
measure: IC50

molecule	measure	meas_value
COc1cc2c(c(CO)c1OC)C[C@H]1c3c(cc4c(c3OC)OCO4)CC[N+]1=C2.O=C([O-])C(F)(F)F [Compound 1, 7,8-Didehydromecambridine TFA salt]	IC50	100 µM
COc1cc2c(c3c1OCOC3)C[C@H]1c3c(cc4c(c3OC)OCO4)CC[N+]1=C2.O=C([O-])C(F)(F)F [Compound 2, 7,8-Didehydroorientalidine TFA salt]	IC50	98.5 µM
COc1cc2c3c(c1O)-c1c(cccc1OC)C[C@@H]3N(C)CC2	IC50	2.8 µM
